The following molecules are listed with their measured pEC50 values.
- target under test: Stimulator of interferon genes protein (Mus musculus, UniProt Q3TBT3)
- Sequence (Q3TBT3 whole entry, looked up, change not shown): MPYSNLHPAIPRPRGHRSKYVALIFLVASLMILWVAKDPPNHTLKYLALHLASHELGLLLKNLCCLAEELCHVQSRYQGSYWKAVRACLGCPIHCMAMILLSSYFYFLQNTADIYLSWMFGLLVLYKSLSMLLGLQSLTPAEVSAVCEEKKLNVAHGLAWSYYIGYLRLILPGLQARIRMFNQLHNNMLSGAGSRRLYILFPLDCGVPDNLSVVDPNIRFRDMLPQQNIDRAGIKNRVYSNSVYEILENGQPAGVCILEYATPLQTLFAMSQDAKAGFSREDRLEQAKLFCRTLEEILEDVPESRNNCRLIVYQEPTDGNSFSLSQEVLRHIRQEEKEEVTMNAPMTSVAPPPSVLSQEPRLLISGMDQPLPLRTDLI
- test parameters: bmdc
// pEC50 is dimensionless: -log10 of concentration (M)

mol smiles | reported endpoint | value reported
Nc1nc2c(ncn2[C@@H]2O[C@@H]3CO[P@@](=O)(S)O[C@H]4[C@@H](O)[C@H](n5cnc6c(N)ncnc65)O[C@@H]4CO[P@@](=O)(S)O[C@@H]2C3)c(=O)[nH]1 | pEC50 | 5.21

stdin: Bench note: what pEC50 did Nc1nc2c(ncn2[C@@H]2O[C@@H]3CO[P@@](=O)(S)O[C@H]4[C@H]5OC[C@]4(CO[P@@](=O)(S)O[C@@H]2[C@@H]3O)O[C@H]5n2cnc3c(N)ncnc32)c(=O)[nH]1 show?
stdout: 5.27

stdin: Bench note: what pEC50 did Nc1nc2c(ncn2[C@@H]2O[C@@H]3CO[P@@](=O)(S)O[C@H]4C[C@H](n5cnc6c(N)ncnc65)O[C@@H]4CO[P@@](=O)(S)O[C@@H]2[C@@H]3F)c(=O)[nH]1 show?
stdout: 5.49

stdin: Bench note: what pEC50 did Nc1nc2c(ncn2[C@@H]2O[C@@H]3CO[P@@](=O)(S)O[C@H]4[C@@H](F)[C@H](n5cnc6c(N)ncnc65)O[C@@H]4CO[P@@](=O)(S)O[C@@H]2[C@@H]3O)c(=O)[nH]1 show?
stdout: 5.81
